system: HOP-62 (Lung Adenocarcinoma); test: Bliss excess, mean over the matrix (fraction); higher = more synergy;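 also: after 72 h of two-drug dosing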
endpoint.name: Bliss excess
# respond with the number and nothing more

Task item: Enter reported Bliss excess observed with HOP-62 (Lung Adenocarcinoma) for COc1nnc2ccc(N3CCC(c4ccc(OCCN5CCN(C)C(=O)[C@H]5C)cc4)CC3)nn12 [AZD5153] + C=CCn1c(=O)c2cnc(Nc3ccc(N4CCN(C)CC4)cc3)nc2n1-c1cccc(C(C)(C)O)n1 [AZD1775] (first compound max 1 µM, partner max 1 µM)
Reply: -0.0674

Task item: API: value(readout= Bliss excess, system= HOP-62 (Lung Adenocarcinoma), query= Cn1cnc2c(F)c(Nc3ccc(Br)cc3Cl)c(C(=O)NOCCO)cc21 [Selumetinib] + C[C@@H]1COCCN1C2=NC(=NC(=C2)C3(CC3)[S@](=N)(=O)C)C4=C5C=CNC5=NC=C4 [AZD6738] (first compound max 10 µM, 7x7, partner max 10 µM) );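 also: after 72 h of two-drug dosing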
Reply: -0.0175

Task item: Identify the measured Bliss excess of Cc1c2c(nn1C)CSCc1cc(n(C)n1)CSc1cc(c3ccccc3c1)OCCCc1c(C(=O)O)n(C)c3c-2c(Cl)ccc13 [AZD5991] + C1CN(CCC1(C(=O)N[C@@H](CCO)C2=CC=C(C=C2)Cl)N)C3=NC=NC4=C3C=CN4 [Capivasertib] (first compound max 1 µM, 7x7, partner max 3 µM) for HOP-62 (Lung Adenocarcinoma).
Reply: -0.0422

Task item: For HOP-62 (Lung Adenocarcinoma), provide Bliss excess of CC1(C)CCC(CN2CCN(c3ccc(C(=O)NS(=O)(=O)c4ccc(NCC5CCOCC5)c([N+](=O)[O-])c4)c(Oc4cnc5[nH]ccc5c4)c3)CC2)=C(c2ccc(Cl)cc2)C1 [Venetoclax] + COc1cc(Nc2ncc3c(n2)-c2ccc(Cl)cc2C(c2c(F)cccc2OC)=NC3)ccc1C(=O)O [Alisertib] (first compound max 1 µM, 7x7, partner max 10 µM) please.
Reply: -0.0381

Task item: # get_value(readout= Bliss excess, system= HOP-62 (Lung Adenocarcinoma)) for COc1cccc(OCCCN)c1-c1cc(Nc2cnc(C#N)cn2)n[nH]1 [Prexasertib] + Cc1cc2ncnn2cc1Nc1ncc2c(n1)n(C1CCOCC1)c(=O)n2C [AZD7648] (first compound max 1 µM, 7x7, partner max 10 µM);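 also: after 72 h of two-drug dosing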
Reply: -0.0063

Task item: Any idea what Bliss excess came out for Cn1cnc2c(F)c(Nc3ccc(Br)cc3Cl)c(C(=O)NOCCO)cc21 [Selumetinib] + C=CCn1c(=O)c2cnc(Nc3ccc(N4CCN(C)CC4)cc3)nc2n1-c1cccc(C(C)(C)O)n1 [AZD1775] (first compound max 10 µM, partner max 1 µM) on HOP-62 (Lung Adenocarcinoma)?
Reply: -0.0468

Task item: Query for HOP-62 (Lung Adenocarcinoma): what Bliss excess does the record show for CC(=O)c1c(C)c2cnc(Nc3ccc(N4CCNCC4)cn3)nc2n(C2CCCC2)c1=O [Palbociclib] + CN(CC[C@H](CSC1=CC=CC=C1)NC2=C(C=C(C=C2)S(=O)(=O)NC(=O)C3=CC=C(C=C3)N4CCC(CC4)[C@H](C5=CC=CC=C5C6=CC=C(C=C6)Cl)O)S(=O)(=O)C(F)(F)F)CCO [AZD4320] (first compound max 10 µM, 7x7, partner max 1 µM) ?
Reply: -0.0777
